Hello, the source for this data is ChEMBL document CHEMBL2390918, in case you need it.

study_system: Glutamate NMDA receptor
test: Displacement of [3H]MDL105519 from NMDA receptor glycine binding site in Wistar rat cerebral cortex after 30 mins

- structure_as_smiles: "O=C(O)/C(=C/c1c(C(=O)O)[nH]c2cc(Cl)cc(Cl)c12)c1ccccc1"
  IC50: "22 nM"

----------
test: Selectivity ratio of EC50 for human CSC-like HMLE cells expressing shRNA and epithelial cadherin to EC50 for human HMLE cells expressing shRNA and GFP
Type: ADME, cell-based
particulars: read-out: Ratio EC50
Friendly reminder: selectivity ratio below 2 is Fulfilled, at or above is Not fulfilled.

- structure_as_smiles: "CC(C)c1ccc(/C=C/C(=O)NC2=NCCS2)cc1"
  class_name: "Not fulfilled"
- structure_as_smiles: "CC(C)c1ccc(/C=C/C(=O)NC2CCCC2)cc1"
  class_name: "Not fulfilled"
- structure_as_smiles: "CC(C)c1ccc(/C=C/C(=O)Nc2nncs2)cc1"
  class_name: "Fulfilled"
- structure_as_smiles: "CC(C)c1ccc(/C=C/C(=O)Nc2nccn2C)cc1"
  class_name: "Fulfilled"
- structure_as_smiles: "CC(C)c1ccc(/C=C/C(=O)Nc2ccccc2)cc1"
  class_name: "Fulfilled"
